What follows is literature data on pKi for Tyrosine-protein kinase JAK2 (Homo sapiens, UniProt O60674).
pKi: −log10 of the molar value.

Consider the reported pKi for these compounds:
COMPOUND	pKi
O=C(NC1CC1)c1cc(N2CCC[C@@H]2C(=O)NCC(F)(F)F)nc(-c2c[nH]c3ncc(Cl)cc23)n1	≤ 6.30
C[C@H](Nc1cc(-c2c(N)nn3cccnc23)nc(OCCCN(C)C)n1)c1ccc(F)cc1	> 8.00
O=C(Nc1nc(-c2ncnc3[nH]ccc23)cs1)C1CCCNC1 (stereo not shown)	> 7.00

Now take the following compound into account.
// pKi lookup, key: CN1C(=O)C(C)(c2ccc(Nc3nc(-c4c(F)cccc4F)nc4c3C(=O)NC4)cc2)Oc2ccccc21 (stereo not shown)
6.00 to 7.00

###

What follows is literature data on Ki for Tyrosine-protein kinase JAK2 (Homo sapiens, UniProt O60674).

COMPOUND	SYSTEM_TESTED	RESULT
C[C@H](Nc1nc(-c2c[nH]c3ncncc23)nc2ccccc12)C(=O)NCC(F)(F)F	Tyrosine-protein kinase JAK2 (Homo sapiens, UniProt O60674)	500 to 5000 nM
CC(C)(C)OC(=O)N1CC=C(c2ncnc3[nH]ccc23)CC1	Tyrosine-protein kinase JAK2 (Homo sapiens, UniProt O60674)	< 500 nM
CCC#CC(C)Oc1nc(N[C@@H](C)c2ccc(F)cc2)cc(-c2c(N)nn3cccnc23)n1 (some centres unmarked)	Tyrosine-protein kinase JAK2 (Homo sapiens, UniProt O60674)	10 to 100 nM
C[C@H](Nc1nc(-c2c[nH]c3ncncc23)nc(N2CCOCC2)n1)C(=O)NCC(F)(F)F	Tyrosine-protein kinase JAK2 (Homo sapiens, UniProt O60674)	> 5000 nM
C[C@@H](c1ccccc1)N(C)c1cc(-c2c(N)nn3cccnc23)ncn1	Tyrosine-protein kinase JAK2 (Homo sapiens, UniProt O60674)	10 to 100 nM
Oc1ccc(C2Nc3ccccc3-c3ncnc4[nH]cc2c34)cc1Cl (centres unmarked)	Tyrosine-protein kinase JAK2 (Homo sapiens, UniProt O60674)	< 250 nM

Ki of `CC(C)CN(CCC(F)(F)F)C(=O)c1ccc(-c2ncnc3[nH]ccc23)o1` on Tyrosine-protein kinase JAK2 (Homo sapiens, UniProt O60674)?
< 100 nM

Ki of CC(C)CNC(=O)C(C)n1cc(-c2ncnc3[nH]ccc23)cn1 (centres unmarked) on Tyrosine-protein kinase JAK2 (Homo sapiens, UniProt O60674)?
100 to 500 nM

###

What follows is literature data on Ki for Tyrosine-protein kinase JAK2 (Homo sapiens).

// Ki lookup, key: `CC(C)[C@H](C)NC(=O)c1cc(N[C@@H](C)C(=O)NCC(F)(F)F)nc(-c2c[nH]c3ncncc23)n1`
500 to 5000 nM

// Ki lookup, key: CC1(O)CCCN(c2ccn(-c3cc(-c4c(F)cccc4C#N)nc4c3C(=O)NC4)n2)C1 (centres unmarked)
10 to 100 nM

// Ki lookup, key: `N#Cc1cccc(F)c1-c1cc(-n2ccc(N3CCC[C@H](N)C3)n2)c2c(n1)CNC2=O`
10 to 100 nM

// Ki lookup, key: `N#Cc1cccc(F)c1-c1cc(-n2ccc(N3CCOCC3)n2)c2c(n1)CNC2=O`
10 to 100 nM

// Ki lookup, key: Clc1cccc(C2Nc3ccccc3-c3ccnc4[nH]cc2c34)c1Cl (centres unmarked)
250 to 2500 nM

// Ki lookup, key: `O=C(c1cc(-c2ncnc3[nH]ccc23)c[nH]1)N(CC1CCCC1)CC(F)(F)F`
< 100 nM

// Ki lookup, key: `O=C(NCC(F)F)c1cc(-c2ncnc3[nH]ccc23)c[nH]1`
< 100 nM

// Ki lookup, key: `O=C(NCC(F)(F)F)[C@@H]1C[C@@H](F)CN1c1nc(-c2c[nH]c3ncncc23)ncc1F`
> 5000 nM

// Ki lookup, key: `O=C1[C@H]2CCCC[C@H]2C(=O)N1c1nc(-c2ncnc3[nH]ccc23)cs1`
100 to 500 nM
